- Target Under Test: T1, HKU1 full length Spike (human coronavirus HKU1, UniProt Q5MQD0 13-1276)
- T1 sequence: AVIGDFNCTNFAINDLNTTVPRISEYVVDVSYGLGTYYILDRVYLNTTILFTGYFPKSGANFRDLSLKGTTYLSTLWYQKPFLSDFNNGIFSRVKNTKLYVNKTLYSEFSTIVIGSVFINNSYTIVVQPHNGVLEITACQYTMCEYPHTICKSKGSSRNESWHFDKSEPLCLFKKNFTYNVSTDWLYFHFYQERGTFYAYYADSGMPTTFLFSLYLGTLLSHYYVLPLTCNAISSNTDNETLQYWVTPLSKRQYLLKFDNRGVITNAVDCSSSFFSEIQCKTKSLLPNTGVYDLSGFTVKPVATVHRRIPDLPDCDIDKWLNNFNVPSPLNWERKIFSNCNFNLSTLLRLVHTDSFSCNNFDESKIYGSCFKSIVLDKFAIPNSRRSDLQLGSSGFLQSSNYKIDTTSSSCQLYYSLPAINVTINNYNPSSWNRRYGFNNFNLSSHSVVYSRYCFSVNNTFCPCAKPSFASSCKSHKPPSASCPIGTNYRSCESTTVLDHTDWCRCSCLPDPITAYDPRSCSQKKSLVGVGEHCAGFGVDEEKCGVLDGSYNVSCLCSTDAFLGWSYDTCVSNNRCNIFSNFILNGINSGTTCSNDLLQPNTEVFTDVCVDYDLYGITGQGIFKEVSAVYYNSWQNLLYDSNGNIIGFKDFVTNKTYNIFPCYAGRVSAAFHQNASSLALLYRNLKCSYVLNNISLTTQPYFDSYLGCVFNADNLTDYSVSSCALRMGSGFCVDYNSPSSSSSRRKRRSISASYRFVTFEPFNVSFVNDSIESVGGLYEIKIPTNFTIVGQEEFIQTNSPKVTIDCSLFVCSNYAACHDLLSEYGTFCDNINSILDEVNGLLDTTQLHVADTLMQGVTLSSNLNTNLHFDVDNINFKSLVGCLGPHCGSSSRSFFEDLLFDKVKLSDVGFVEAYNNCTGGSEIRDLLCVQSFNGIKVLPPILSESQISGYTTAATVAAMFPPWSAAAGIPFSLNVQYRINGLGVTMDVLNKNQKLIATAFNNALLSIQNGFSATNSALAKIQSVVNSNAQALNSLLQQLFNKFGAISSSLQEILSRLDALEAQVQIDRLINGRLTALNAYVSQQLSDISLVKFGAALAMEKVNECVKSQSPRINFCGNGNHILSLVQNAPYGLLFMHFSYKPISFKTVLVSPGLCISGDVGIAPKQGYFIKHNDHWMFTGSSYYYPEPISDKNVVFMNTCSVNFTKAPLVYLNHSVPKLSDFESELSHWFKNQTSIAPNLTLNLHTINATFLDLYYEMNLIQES
median fluorescence intensity, fold over isotype control overview
Give the value, in units of fold over isotype, as a plain number.

Binder | Measured Number
mAb 1037 (antibody, V domains shown) VH: QITLKESGPTLVKPTQTLTLTCTFSGFSLSTSGVGVGWIRQPPGKALEWLALIYWDDDKRYSPSLKSRLTITKDTSKNQVVLTMTNMDPVDTATYYCAHHTITRINDYWGQGTLVTVSS VL: QSALTQPASVSGSPGQSITISCTATSSDVGAYNYVSWYQQHPGKAPKLMIYDVSKRPSGVSNRFSGSKSGNTASLTISGLQAEDEADYYCSSYTSSSTVFGGGTKLTVLG | 1.43
mAb 1015 (antibody, V domains shown) VH: EVQLVESGGGLVQPGGSLRLSCAASGFTFSSYWMHWVRQAPGKGLVWVSHINSDGSSTSYADSVKGRFTISRDNAKNTLYLQMNSLRAEDTAVYYCARGLRYFDLDVWGQGTTVTVSS VL: QSVLTQPPSVSEAPRQRVTISCSGSSSNIGNNAVNWYQQLPGKAPKLLIFYDDLLPSGVSDRFSGSKSGTSASLAISGLQSEDEADYYCAAWDDSLNGGVFGGGTKLTVLG | 1.04

// moving on: another record for median fluorescence intensity, fold over isotype control
I am curious: what median fluorescence intensity, fold over isotype control value has been reported for mAb 1495 (antibody, V domains shown) VH: QVQLVESGGGVVQPGRSLRLSCTASGFTFSSYAMHWVRQAPGKGLEWVAVISYDGNNKYYGDSVKGRFTISRDNSKNTLYLQMNSLRAEDTAVYYCAKGADTPHYSGYHFLSVGYYFYGMDVWGQGTTVTVSS VL: DIQMTQSPSSLSASVGDRVTITCRASQSISYYLNWYQQKPGKAPQLLIYAASSLQSGVPSRFSGSRSGTDFTLTISSLQPEDFATYYCQQSYSTPFTFGPGTKVDIKR ?
1.05
